The values you see were collected from the supplement of paper PMC10567573.

B1: C2CD2L (parent)
chain: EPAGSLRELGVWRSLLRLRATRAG

variants of: B1; assay: protein stability index of a GFP-peptide fusion (GPS, HEK-293T) (PSI 1-6); higher = more stable; conditions: c terminus: a fixed tail appended;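 also: lentivirally expressed fusions sorted by FACS into six bins by GFP to DsRed ratio, PSI derived from sequencing read proportions per bin multiplied by bin number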
Rule: protein stability index of 2 or more gives Yes; anything lower gives No.

Take a look at these entries with their results.
INSERT INTO results (variant_notation, group) VALUES
  ('R17H', 'Yes'),
  ('E8M', 'No'),
  ('V11R', 'Yes'),
  ('R17C', 'Yes'),
  ('G4I', 'Yes');

Hello, I need to know if `E8I` has measured protein stability index not below 2. Thanks! No

Moving on to `E1P` Yes

Moving on to `S14V` No

Moving on to `S14F` Yes
